All values here come from the supplement of paper PMC12667976.

B1: library; numbered along this chain (parent)
chain: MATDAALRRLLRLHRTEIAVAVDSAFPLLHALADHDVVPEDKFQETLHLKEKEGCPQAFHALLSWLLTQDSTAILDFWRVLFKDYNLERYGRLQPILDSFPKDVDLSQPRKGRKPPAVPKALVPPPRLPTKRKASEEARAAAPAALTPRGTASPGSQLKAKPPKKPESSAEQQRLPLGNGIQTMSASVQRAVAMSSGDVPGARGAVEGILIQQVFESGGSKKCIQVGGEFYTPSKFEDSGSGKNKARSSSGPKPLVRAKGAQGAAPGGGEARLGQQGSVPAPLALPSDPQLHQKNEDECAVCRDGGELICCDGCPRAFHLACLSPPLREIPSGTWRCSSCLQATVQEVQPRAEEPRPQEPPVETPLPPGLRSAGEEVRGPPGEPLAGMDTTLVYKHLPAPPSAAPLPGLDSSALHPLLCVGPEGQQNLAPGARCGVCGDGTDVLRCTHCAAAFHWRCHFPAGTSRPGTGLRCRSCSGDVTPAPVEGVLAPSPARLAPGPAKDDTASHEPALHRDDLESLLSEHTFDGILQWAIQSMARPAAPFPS

- Variants of: B1
- TEST_METHOD_NOTES: AIRE transcriptional activation functional score (insulin promoter-GFP; nonsense median 0, synonymous median 1) (normalised score); higher = higher AIRE activity (more reporter activation)
- REPORTED_CONDITIONS: with insulin promoter-GFP reporter in HEK293
Okay, here is how we bin by AIRE transcriptional activation functional score: LOW (below 0.4), MEDIUM (0.4 to below 0.9), HIGH (0.9 or more)

Record excerpt, results attached:
- VARIANT_ANNOTATION: "P124V"
  ASSIGNED_LABEL: "HIGH"
- VARIANT_ANNOTATION: "P126T"
  ASSIGNED_LABEL: "LOW"
- VARIANT_ANNOTATION: "S187W"
  ASSIGNED_LABEL: "LOW"
- VARIANT_ANNOTATION: "S249V"
  ASSIGNED_LABEL: "HIGH"

Q. Sort into band: I74R
A. LOW

Q. State the band of Q57Y
A. MEDIUM

Q. Lab log: R92G — assign AIRE transcriptional activation functional score category
A. MEDIUM

Q. Input G260W ; output its category
A. HIGH

Q. Into which category would you place S518T ?
A. HIGH

Q. Lab note: which band did R149Y land in?
A. LOW

Q. Class? Entry: S476M
A. HIGH

Q. // return the class label for E136Q
A. HIGH

Q. The entry to classify is A537L ; which class holds it?
A. LOW

Q. For the record E216D , report the class its AIRE transcriptional activation functional score corresponds to.
A. MEDIUM

Q. Assign a category based on measured AIRE transcriptional activation functional score for Q358N and give only the class name.
A. HIGH

Q. # classify by AIRE transcriptional activation functional score band: D198W
A. LOW
